Quick list: pIC50 per entry.
# SUBJECT OF TEST: SARS-CoV-2 Main Protease (SARS-CoV-2) (UniProt P0DTD1)
pIC50: −log10 of the molar value.
MEASUREMENT LABEL: pIC50

1. CN(C)C(=O)c1cc2c(NC(=O)C3CCOc4ccc(Cl)cc43)cncc2s1 (centres undefined)
6.40
2. Cn1ccc(CN2Cc3ccc(Cl)cc3C(C(=O)Nc3cncc4ccc(F)cc34)C2)n1 (centres undefined)
5.87
3. O=C(Cc1cc(Cl)cc(Nc2n[nH]c3ccc(Br)cc23)c1)Nc1cncc2ccccc12
5.74
4. O=C(Cc1cc(Cl)cc(N2CCN(c3ccc(O)cc3)CC2)c1)Nc1cncc2ccccc12
5.66
5. O=C(Cc1cc(Cl)cc(Nc2c(F)c(F)cc(F)c2F)c1)Nc1cncc2ccccc12
5.69
6. CC(C)(C)c1ccc(N(C(=O)c2c[nH]c(=O)[nH]2)C(C(=O)NCCc2cccc(F)c2)c2cccnc2)cc1 (centres undefined)
4.80

###

Quick list: IC50 per entry.
# SUBJECT OF TEST: SARS-CoV-2 Main Protease (SARS-CoV-2)
MEASUREMENT LABEL: IC50 (µM)

1. O=C1CCCCN1c1ccc(N(Cc2ccccc2)C(=O)Cc2[nH]nc3ccccc23)cc1
39.4
2. O=C(CCl)N1CCCc2cc(NCc3ccc(F)cc3Cl)ccc21
19.3

###

# SUBJECT OF TEST: SARS-CoV-2 Main Protease (SARS-CoV-2)
pIC50: −log10 of the molar value.
Threshold check on pIC50: at or above 5 gives YES, strictly below gives NO.

1) O=C(CCl)N1CCN(Cc2cc(Cl)ccc2CNC(=O)N2CCOCC2)CC1
YES
2) O=C(Cc1cccc(Cl)c1)Nc1cncc2cc(F)ccc12
YES
3) N#Cc1ncc(Cl)cn1
NO
4) O=C(NCCc1cccc(F)c1)C(c1cccnc1)N(C(=O)c1cocn1)c1ccc(-n2cc[nH]c2=O)cc1 (stereo unspecified)
NO
5) Cc1ccc(Br)nc1C(=O)NC(C)c1nnc2c(=O)[nH]ccn12 (stereo unspecified)
NO
6) O=C(Nc1n[nH]c2ccncc12)C1CCOc2ccc(Cl)cc21 (stereo unspecified)
NO
7) COC1CC2(C1)CC(N(C(=O)c1cocn1)C(C(=O)NCCc1cccc(F)c1)c1cccnc1)C2 (stereo unspecified)
NO
8) Cc1ccc(-n2ncc3c(=O)n(CC(N)=O)cnc32)cc1C
NO
9) O=C(Cc1cc(Cl)cc(Nc2ccccc2-c2ccccc2)c1)Nc1cncc2ccccc12
YES
10) C=CC(=O)NCc1ccc(C(=O)NCc2cc(C)cc3c(C)c(C)[nH]c23)cc1
NO
11) O=C1NC[C@H](C(=O)Nc2cncc3ccccc23)c2cc(Cl)ccc21 (stereo in doubt)
YES
12) CSCCCNC(=O)C(c1cccnc1)N(C(=O)c1cocn1)c1ccc(C(C)(C)C)cc1 (stereo unspecified)
YES
13) Cc1ccn2cnnc2c1NC(=O)Cc1cccc(Cl)c1
NO
14) COc1ccccc1CN(C(=O)c1cnc[nH]1)C(C(=O)NCCc1cccc(F)c1)c1cccnc1 (stereo unspecified)
NO
15) CN(Cc1nnc2ccccn12)C(=O)c1ccnc2ccccc12
NO
16) O=C1N(c2cncc3ccccc23)CCC12CN(S(=O)(=O)CC1(C(F)(F)F)CC1)Cc1ccc(Cl)cc12 (stereo unspecified)
YES
17) O=C(Nc1cc[nH]c(=O)c1)C1CCOc2ccc(Cl)cc21 (stereo unspecified)
NO
18) Cc1nc(C)c(S(=O)(=O)NCC2CCCC3CC23)s1 (stereo unspecified)
NO
19) N#Cc1nccn1CCc1cccc(Cl)c1
NO
20) COC1(C(=O)Nc2cncc3cc(S(=O)(=O)N(C)C)ccc23)CCOc2ccc(Cl)cc21 (stereo unspecified)
YES

###

# SUBJECT OF TEST: SARS-CoV-2 Main Protease (SARS-CoV-2) (UniProt P0DTD1)
pIC50: −log10 of the molar value.
Threshold check on pIC50: at or above 6 gives class 1, strictly below gives class 0.

1. O=C(Cc1cccc(Cl)c1)N1CC(O)Cc2ccccc21 (stereo not given)
class 0
2. Cn1nc2c(c1C(=O)N(c1ccc(C(C)(C)C)cc1)C(C(=O)NCCc1cccc(F)c1)c1cccnc1)CS(=O)(=O)CC2 (stereo not given)
class 0
3. Cc1cc(C)n(-c2cc(Cl)cc(CC(=O)Nc3cncc4ccccc34)c2)c(=O)c1CN
class 0
4. CN1CCN(c2ccccc2Nc2cc(Cl)cc(CC(=O)Nc3cncc4ccccc34)c2)CC1
class 0
5. CS(=O)(=O)c1ccc2c(NC(=O)C3CCOc4ccc(Cl)cc43)cncc2c1 (stereo not given)
class 1
6. Cc1nnn(NC(=O)Cc2cccc(Cl)c2)c1C
class 0
7. COc1ccc(N(C(=O)c2ccco2)C(C(=O)NCCc2cccc(F)c2)c2cccnc2)cc1NC(=O)C1CCCCC1 (stereo not given)
class 0
8. Cc1nc2ccc(NC(=O)NCc3ccc4[nH]c(=O)[nH]c4c3)cc2o1
class 0
9. COc1cc(C)ccc1CN(C(=O)c1cocn1)C(C(=O)NCCc1cccc(F)c1)c1cccnc1 (stereo not given)
class 0
10. O=C1NCC(C(=O)Nc2cnn3ccccc23)c2cc(Cl)ccc21 (stereo not given)
class 0
11. O=c1[nH]c(Cc2cccc(C(F)(F)F)c2)nc2cnccc12
class 0
12. CNC(=O)CN1CC2(CCN(c3cncc4cc(Cl)ccc34)C2=O)c2cc(Cl)ccc2C1=O (stereo not given)
class 1
13. Cc1ccc2cccc(Nc3cc(Cl)cc(CC(=O)Nc4cncc5ccccc45)c3)c2n1
class 0
14. O=C1CN(C(=O)Cc2cccc(Cl)c2)Cc2ccccc21
class 0
15. Cc1cc(C)c(C#N)c(Sc2ncnc3c2nnn3Cc2ccccc2)n1
class 1
16. O=C(Cc1cc(Cl)cc(Nc2ccn([C@H]3C[C@H](O)[C@@H](CO)O3)c(=O)n2)c1)Nc1cncc2ccccc12 (stereo in doubt)
class 0
17. COc1nccnc1C(C(=O)NCCc1cccc(F)c1)N(C(=O)c1cocn1)c1ccc(C(C)(C)C)cc1 (stereo not given)
class 0
18. N#Cc1ncc(F)cn1
class 0
19. CS(=O)(=O)c1ccc(N(C(=O)c2cocn2)C(C(=O)NCCc2cccc(F)c2)c2cccnc2)cc1 (stereo not given)
class 0

###

# SUBJECT OF TEST: SARS-CoV-2 Main Protease (SARS-CoV-2)
Simple rule here: IC50 less than 8 µM is Satisfied, otherwise Not satisfied.

1) CC1(CS(=O)(=O)N2Cc3ccc(Cl)cc3C3(CCN(c4cncc5ccccc45)C3=O)C2)CC1 (centres undefined)
Satisfied
2) COC(=O)C(C)(CN(C(=O)c1ccco1)C(C(=O)NCCc1cccc(F)c1)c1cccnc1)c1ccccc1F (centres undefined)
Not satisfied
3) Cc1ccncc1NC(=O)Cc1cc(Cl)cc(OCc2nn(C(=O)OC(C)(C)C)c3ccccc23)c1
Not satisfied
4) CC(C)(C)c1ccc(N(C(=O)c2cocn2)C(C(=O)NCCc2cccc(F)c2)c2c(N3CCOCC3)nc3ccccn3c2=O)cc1 (centres undefined)
Not satisfied
5) Cc1ccncc1N1CCN(c2cccc(Cl)c2)C1=O
Not satisfied
6) COc1ccc2cncc(NC(=O)C3CCNc4cc(Cl)c(Cl)cc43)c2c1 (centres undefined)
Satisfied
7) CNC(=O)CN1CC(C(=O)Nc2cncc3cccc(Cl)c23)c2cc(Cl)ccc2C1=O (centres undefined)
Satisfied
8) O=C(NCCc1cccc(F)c1)C(c1cccnc1)N(C(=O)c1cocn1)c1ccc(Cn2cccn2)cc1 (centres undefined)
Not satisfied
9) CC1CC(CCN(C(=O)c2ccco2)C(C(=O)NCCc2cccc(F)c2)c2cccnc2)CC(C)(C)C1 (centres undefined)
Not satisfied

###

# SUBJECT OF TEST: SARS-CoV-2 Main Protease (SARS-CoV-2) (UniProt P0DTD1)
MEASUREMENT LABEL: log10(IC50) (log10 of the value in µM)

1. CNC(=O)CN1Cc2ccc(Cl)cc2C2(CCN(c3cncc4ccc(OCCN(C)C)cc34)C2=O)C1 (configuration not stated)
-0.68
2. Cc1ccncc1NC(=O)Cc1cncc(Cl)c1
1.67
3. CC(NC(=O)CCl)c1cc(F)cc(Cl)c1 (configuration not stated)
1.45
4. O=C(Cc1cc(Cl)cc(Nc2cnc(Br)cn2)c1)Nc1cncc2ccccc12
0.32
5. O=C(Cc1cc(Cl)cc(Nc2ncccc2OCc2ccccc2)c1)Nc1cncc2ccccc12
0.30
6. Cc1ccc(N(Cc2cscn2)C(=O)Cc2cncc3ccccc23)cc1
0.91
7. O=C(Cc1cc(Cl)cc(Nc2ncc(Br)nc2Cl)c1)Nc1cncc2ccccc12
0.23
8. O=C(CCl)N1CCCN(S(=O)(=O)c2cc(F)ccc2F)CC1
1.08
9. COc1ccccc1OCCNC(=O)c1cc(=O)[nH]c2cccc(C)c12
1.03
10. Cn1ccc2cncc(NC(=O)Cc3cccc(Cl)c3)c21
0.16
11. Cc1ccc(CC(=O)Nc2cncc3ccccc23)cc1Cl
0.04
12. O=C(Cc1cccc(Cl)c1)Nc1cnn2ccccc12
1.05
13. CCOC(=O)c1cccc(NC(=O)[C@@H]2CN(C(=O)CCl)CCN2S(=O)(=O)c2ccsc2)c1 (stereo in doubt)
-0.34
14. O=C(NCCc1cccc(F)c1)C(c1cccnc1)N(C(=O)c1cocn1)c1cn(Cc2ccccc2)cn1 (configuration not stated)
1.44
15. Cc1cc(C(=O)CCl)c(C)n1CC1COc2ccccc2O1 (configuration not stated)
0.45
16. O=C(Cc1cc(Cl)cc(Nc2ccc(SC(F)(F)F)cc2)c1)Nc1cncc2ccccc12
0.26

Data origin, for the record: the COVID Moonshot data (paper PMC7615835)
